Biological target: Cathepsin B from bovine spleen (bovine, UniProt P07688 80-332)
Test: cell-based or functional assay
Metric name: Cathepsin B inhibition test, 2 mM peptide
Numbers only.

Field: example entries. Status: answers known.
{"Binder": "Ac-Ile-Asp-Arg-OH (also: MGO-modified, site not given here) [MGO-modified Ac-IDR-OH]", "Observed value": 81.8}
{"Binder": "Ac-Met-Asp-Lys-OH (also: MGO-modified, site not given here) [MGO-modified Ac-MDK-OH]", "Observed value": 99.4}

Record Cathepsin B inhibition test, 2 mM peptide per entry; entries follow.
1. H-Met-His-Arg-OH [H-MHR-OH]
2. Ac-Thr-Asn-Arg-OH [Ac-TNR-OH]
3. Ac-Met-His-Arg-OH [Ac-MHR-OH]
4. H-Met-His-Arg-OH (also: MGO-modified, site not given here) [MGO-modified H-MHR-OH]

Data returned:
[96.8, 96.5, 101, 80.7]
